cell viability: recorded values
- Test system: NOMO1
- EXPERIMENT SUMMARY: cell viability relative to DMSO control; higher = less cytotoxic
- CONDITIONS USED: RPMI 5 mM glucose + 10% FBS; 48 h; 0.0211 µM
Reply numerically in %, unit not repeated.

Below, 8 molecules whose answers are already recorded.
>  <MOLECULE>
O=C(O)c1ccc(O)c2ncc(N3CCOCC3)cc12

>  <UNIT SPEC>
%

>  <cell viability>
92.1

$$$$
>  <MOLECULE>
C[S+](=O)([O-])Oc1ccc2c(NC(N)=O)c(C(=O)c3ccc(Cl)cc3Cl)oc2c1

>  <UNIT SPEC>
%

>  <cell viability>
115

$$$$
>  <MOLECULE>
COc1c(Cl)cc2c([nH]c3cnccc32)c1NC(=O)c1cccnc1C

>  <UNIT SPEC>
%

>  <cell viability>
101

$$$$
>  <MOLECULE>
COc1ccccc1[C@H](c1cccc2ccccc12)[C@@](C)(C#N)C(=O)N1CCC(c2cccc(C(F)(F)F)c2)CC1

>  <UNIT SPEC>
%

>  <cell viability>
106

$$$$
>  <MOLECULE>
CCCN[C@H]1CCc2nc(N)sc2C1

>  <UNIT SPEC>
%

>  <cell viability>
89.3

$$$$
>  <MOLECULE>
OC1=CC=C(C=C1)C/2=C/C3=C(OC2)C=C(O)C=C3

>  <UNIT SPEC>
%

>  <cell viability>
99.8

$$$$
>  <MOLECULE>
CC1(C)CC\C2=C(/O1)C3=C(C=CC=C3)C(=O)C2=O

>  <UNIT SPEC>
%

>  <cell viability>
103

$$$$
>  <MOLECULE>
CCCCc1ccc2[nH]c(NC(=O)OC)nc2c1

>  <UNIT SPEC>
%

>  <cell viability>
110

$$$$

Lookup: Need cell viability, item Clc2cccc(Cl)c2\N=C1/NCCN1
Found: 120

Lookup: Need cell viability, item Cc1ccc2nc(NCCN)c3ncc(C)n3c2c1
Found: 94.1

Lookup: Need cell viability, item C[C@]12CC[C@H]3[C@@H](CC(=C)\C4=C\C(=O)\C=C/[C@]34C)[C@@H]1CCC2=O
Found: 90.4

Lookup: Need cell viability, item CCCCCCNC(=O)N1\C=C(F)/C(=O)NC1=O
Found: 109

Lookup: Need cell viability, item CC(C)C1CCC(C(=O)N[C@H](Cc2ccccc2)C(=O)O)CC1 (some centres not stated)
Found: 89.7

Lookup: Need cell viability, item CN(C)c1nc(Cc2ccc(NC(=O)c3ccc(C(F)(F)F)cc3)cc2)nc(N(C)C)c1CC(=O)O
Found: 82.7

Lookup: Need cell viability, item Cc1cc(Nc2ncc3c(n2)N(C)C(=O)N(c2cc(NC(=O)c4cccc(C(F)(F)F)c4)ccc2C)C3)n(C)n1
Found: 156

Lookup: Need cell viability, item C/C1=C2/[N]3[Co+]456([OH])<-[N]7=C1[C@@H](CCC(N)=O)C(C)(C)/C7=C/C1=[N]->4C(=C(/C)C4=[N]->5[C@@](C)([C@H]3[C@H](CC(N)=O)[C@@]2(C)CCC(=O)NC[C@@H](C)OP(=O)([O-])O[C@H]2[C@@H](O)[C@@H](n3c[n]->6c5cc(C)c(C)cc53)O[C@@H]2CO)[C@@](C)(CC(N)=O)[C@@H]4CCC(N)=O)/[C@@](C)(CC(N)=O)[C@@H]1CCC(N)=O
Found: 95.4

Lookup: Need cell viability, item CCCOc1ccc(C(=O)OCCN(CC)CC)cc1N
Found: 123

====

- System: SEM cells
- EXPERIMENT SUMMARY: cell viability relative to DMSO control; higher = less cytotoxic
- CONDITIONS USED: RPMI 5 mM glucose + 10% dialyzed FBS; 48 h; 0.0632 µM
cell viability: recorded values
Reply numerically in %, unit not repeated.

Below, 4 compounds whose answers are already recorded.
>  <SMILES NOTATION>
CNC[C@H](O)[C@@H](O)[C@H](O)[C@H](O)CO

>  <UNIT SPEC>
%

>  <RECORDED MEASUREMENT>
116

$$$$
>  <SMILES NOTATION>
COC1=CC=C(C=C1)/C2=C(O)/C(=O)C3=C(O)C=C(O)C(=C3O2)CC=C(C)C

>  <UNIT SPEC>
%

>  <RECORDED MEASUREMENT>
120

$$$$
>  <SMILES NOTATION>
COc1cc(NCc2ccc3nc(N)nc(N)c3c2C)cc(OC)c1OC

>  <UNIT SPEC>
%

>  <RECORDED MEASUREMENT>
94.4

$$$$
>  <SMILES NOTATION>
C=C(c1ccc(C(=O)O)cc1)c1cc2c(cc1C)C(C)(C)CCC2(C)C

>  <UNIT SPEC>
%

>  <RECORDED MEASUREMENT>
116

$$$$

Moving on to the next compound.
Lookup: Need cell viability, item Cc1ccc(C(=O)Nc2cccc(C(F)(F)F)c2)cc1Nc1nc(-c2cccnc2)nc2c1cnn2C
Found: 82.8

====

- Tested on: P12-Ichikawa
- EXPERIMENT SUMMARY: cell viability relative to DMSO control; higher = less cytotoxic
- CONDITIONS USED: HPLM + 10% dialyzed FBS; 48 h; 0.000781 µM
MEASURED METRIC: cell viability

Lookup: Need cell viability, item C[C@@H]1CC[C@@]2(CC[C@]3(C)\C(=C/C[C@@H]4[C@@]5(C)CC[C@H](O)C(C)(C)[C@@H]5CC[C@@]34C)[C@@H]2[C@H]1C)C(O)=O
Found: 112%

====

cell viability: recorded values
- System: SEM cells
- EXPERIMENT SUMMARY: cell viability relative to DMSO control; higher = less cytotoxic
- CONDITIONS USED: RPMI 5 mM glucose + 10% FBS; 48 h; 0.19 µM
Reply numerically in %, unit not repeated.

>  <SMILES NOTATION>
COc1ccc(/C=C\c2cc(OC)c(OC)c(OC)c2)cc1NC(=O)[C@H](N)CO

>  <SYSTEM UNDER TEST>
SEM cells

>  <UNIT SPEC>
%

>  <RECORDED MEASUREMENT>
11.1

$$$$
>  <SMILES NOTATION>
C[C@H](NC(=O)Cc1cc(F)cc(F)c1)C(=O)N[C@H](C(=O)OC(C)(C)C)c1ccccc1

>  <SYSTEM UNDER TEST>
SEM cells

>  <UNIT SPEC>
%

>  <RECORDED MEASUREMENT>
87.3

$$$$

Lookup: Need cell viability, item C=CC(=O)Nc1cc2c(Nc3ccc(F)c(Cl)c3)ncnc2cc1C#CC(C)(C)N1CCN(C)CC1
Found: 138

Lookup: Need cell viability, item CCNC(=O)Nc1ccc(Oc2ncnc(N)c2/C=N/OC)cc1Cl
Found: 79.5

Lookup: Need cell viability, item O=C(O)c1cc(O)c2c(c1)C(=O)c1cccc(O)c1C2=O
Found: 120

Lookup: Need cell viability, item NC(=O)c1cccc(-c2cc(Nc3ccc(OC(F)(F)F)cc3)ncn2)c1
Found: 117

Lookup: Need cell viability, item CC(C)(N)C(=O)N[C@H](COCc1ccccc1)C(=O)N1CCC2(CC1)CN([S+](C)(=O)[O-])c1ccccc12
Found: 130

Lookup: Need cell viability, item COc1ccccc1[C@H](c1cccc2ccccc12)[C@@](C)(C#N)C(=O)N1CCC(c2cccc(C(F)(F)F)c2)CC1
Found: 114

====

cell viability: recorded values
- Test system: NOMO1
- EXPERIMENT SUMMARY: cell viability relative to DMSO control; higher = less cytotoxic
- CONDITIONS USED: HPLM + 10% dialyzed FBS; 48 h; 0.569 µM
Reply numerically in %, unit not repeated.

Below, 6 compounds whose answers are already recorded.
>  <SMILES NOTATION>
Oc1ccc(OCc2ccccc2)cc1

>  <SYSTEM UNDER TEST>
NOMO1

>  <cell viability / %>
102

$$$$
>  <SMILES NOTATION>
Cc1cc(Nc2ncc3c(n2)N(C)C(=O)N(c2cc(NC(=O)c4cccc(C(F)(F)F)c4)ccc2C)C3)n(C)n1

>  <SYSTEM UNDER TEST>
NOMO1

>  <cell viability / %>
90.5

$$$$
>  <SMILES NOTATION>
CC(=O)SC[C@@H](C)C(=O)N1CCC[C@H]1C(=O)N[C@@H](Cc1ccccc1)C(=O)O

>  <SYSTEM UNDER TEST>
NOMO1

>  <cell viability / %>
97.2

$$$$
>  <SMILES NOTATION>
CO[C@H]1/C=C/O[C@@]2(C)Oc3c(C)c(O)c4c(c3C2=O)C2=NC3(CCN(CC(C)C)CC3)NC2=C(NC(=O)/C(C)=C/C=C/[C@H](C)[C@H](O)[C@@H](C)[C@@H](O)[C@@H](C)[C@H](OC(C)=O)[C@@H]1C)C4=O

>  <SYSTEM UNDER TEST>
NOMO1

>  <cell viability / %>
138

$$$$
>  <SMILES NOTATION>
COC1=CC=C(C=C1)/C2=C(O)/C(=O)C3=C(O)C=C(O)C(=C3O2)CC=C(C)C

>  <SYSTEM UNDER TEST>
NOMO1

>  <cell viability / %>
115

$$$$
>  <SMILES NOTATION>
Clc2cccc(Cl)c2\N=C1/NCCN1

>  <SYSTEM UNDER TEST>
NOMO1

>  <cell viability / %>
121

$$$$

Lookup: Could you share what cell viability was measured for CCCN[C@H]1CCc2nc(N)sc2C1 , tested on NOMO1?
Found: 119

Lookup: Could you share what cell viability was measured for CCn1nnc2c(N3CCOCC3)nc(-c3ccc(NC(=O)Nc4ccc(C(=O)N5CCN(C)CC5)cc4)cc3)nc21 , tested on NOMO1?
Found: 101
